test system: HEK293 cells expressing full length sortilin receptor; assay: Cellular uptake of AlexaFluor488-anti-DNP antibody; format: cell-based; details: Table 7; AlexaFluor488-anti-DNP antibody (100 nM), 3 h, DNP warhead compounds
MEASURE_NAME: AUC score, target internalization

molecule="CC(C)(C)CC[C@H](NC(=O)c1ccc(Oc2cccc(C(=O)NCCOCCOCCOCCOCCOCCOCCOCCNc3ccc([N+](=O)[O-])cc3[N+](=O)[O-])c2)nc1)C(=O)O [BF006]" measured_result="+ (AUC < 10.000)"
molecule="CC(C)(C)CC[C@H](NC(=O)c1ccc(Oc2cccc(OCCOCCOCCOCCOCCOCCNc3ccc([N+](=O)[O-])cc3[N+](=O)[O-])c2)nc1)C(=O)O [BF004]" measured_result="+ (AUC < 10.000)"
molecule="CC(C)(C)CC[C@H](NC(=O)c1ccc(Oc2cccc(C(=O)NCCOCCOCCOCCOCCOCCOCCNc3ccc([N+](=O)[O-])cc3[N+](=O)[O-])c2)nc1)C(=O)O [BF008]" measured_result="+ (AUC < 10.000)"
molecule="CC(C)(C)CC[C@H](NC(=O)c1ccc(Oc2cccc(OCCOCCOCCOCCOCCOCCOCCNc3ccc([N+](=O)[O-])cc3[N+](=O)[O-])c2)nc1)C(=O)O [BF014]" measured_result="++ (AUC > 10.000)"
molecule="CC(C)(C)CC[C@H](NC(=O)c1ccc(Oc2cccc3c(C(=O)NCCCNC(=O)CCOCCOCCOCCOCCNc4ccc([N+](=O)[O-])cc4[N+](=O)[O-])cccc23)nc1)C(=O)O [BF010]" measured_result="++ (AUC > 10.000)"
molecule="CC(C)(C)CC[C@H](NC(=O)c1ccc(Oc2cccc(C(=O)NCCOCCOCCOCCOCCOCCNc3ccc([N+](=O)[O-])cc3[N+](=O)[O-])c2)nc1)C(=O)O [BF011]" measured_result="+ (AUC < 10.000)"

# evaluate next
# input molecule: CC(C)(C)CC[C@H](NC(=O)c1ccc(Oc2cccc3c(C(=O)NCCCNC(=O)CCOCCOCCOCCNc4ccc([N+](=O)[O-])cc4[N+](=O)[O-])cccc23)nc1)C(=O)O [BF005] ; wanted: its AUC score, target internalization
++ (AUC > 10.000)

Sourced from patent US20250345446A1
